Test system: HeLa cells
PROCEDURE TEXT: MTT assay for cytotoxicity
CONDITIONS USED: 40 nM, 2 h
OUTCOME MEASURE: MTT (% Cell Survival) 40 nM (%)
Give your result in % as a bare value.

What does the data say about its MTT (% Cell Survival) 40 nM? Entry: OB(O)c1cnc(OCc2ccccc2)nc1OCc1ccccc1
100.05

What does the data say about its MTT (% Cell Survival) 40 nM? Entry: OB(O)c1ccsc1
90.42

What does the data say about its MTT (% Cell Survival) 40 nM? Entry: N#Cc1cc(B(O)O)ccc1F
89.30

What does the data say about its MTT (% Cell Survival) 40 nM? Entry: OB(O)c1cccc(OCc2ccccc2)c1
99.83

What does the data say about its MTT (% Cell Survival) 40 nM? Entry: OB(O)c1ccccc1Cl
86.3068

What does the data say about its MTT (% Cell Survival) 40 nM? Entry: CC(=O)c1ccc(B(O)O)s1
84.50

What does the data say about its MTT (% Cell Survival) 40 nM? Entry: OB(O)c1ccc(O)cc1 [4-hydroxyphenylboronic acid]
203.926

What does the data say about its MTT (% Cell Survival) 40 nM? Entry: CCCc1ccc(B(O)O)cc1
202.674

What does the data say about its MTT (% Cell Survival) 40 nM? Entry: OB(O)c1cc(Br)cs1
116.67

What does the data say about its MTT (% Cell Survival) 40 nM? Entry: OB(O)c1ccc(Cl)cc1Cl
99.29

###

System: NF-κB
PROCEDURE TEXT: NF-κB assay for inflammation (nuclear translocation of NF-κB, immunocytochemistry, PCC)
CONDITIONS USED: HeLa cells, 160 nM, 2 h; PCC between nuclear and cytoplasmic fraction of NF-κB
Could you please report measured Inflammation (PCC) 160 nM for the items listed next?

What does the data say about its Inflammation (PCC) 160 nM? Entry: OB(O)c1ccsc1
0.05963

What does the data say about its Inflammation (PCC) 160 nM? Entry: CCOc1ccc(B(O)O)cn1
0.1498

What does the data say about its Inflammation (PCC) 160 nM? Entry: O=Cc1ccc(B(O)O)o1
0.1132

What does the data say about its Inflammation (PCC) 160 nM? Entry: OB(O)c1ccccc1Cl
0.09948

What does the data say about its Inflammation (PCC) 160 nM? Entry: OB(O)C1=CCCC1
0.1634

###

Test system: NF-κB
PROCEDURE TEXT: NF-κB assay for inflammation (nuclear translocation of NF-κB, immunocytochemistry, PCC)
CONDITIONS USED: HeLa cells, 160 nM, 2 h; PCC between nuclear and cytoplasmic fraction of NF-κB
OUTCOME MEASURE: Inflammation (PCC) 160 nM
Answer with the value's number alone.

What does the data say about its Inflammation (PCC) 160 nM? Entry: OB(O)c1ccc(Cl)cc1Cl
0.3067

What does the data say about its Inflammation (PCC) 160 nM? Entry: O=C(O)c1cc(B(O)O)cc([N+](=O)[O-])c1
0.1227

What does the data say about its Inflammation (PCC) 160 nM? Entry: O=Cc1sccc1B(O)O
0.1262

What does the data say about its Inflammation (PCC) 160 nM? Entry: Cn1c(B(O)O)cc2ccccc21
0.1336

What does the data say about its Inflammation (PCC) 160 nM? Entry: N#Cc1ccccc1B(O)O
0.104

What does the data say about its Inflammation (PCC) 160 nM? Entry: O=Cc1cc(B(O)O)cs1
0.193

# credit: patent US9278068B2
